Experiment summary: Plasma pharmacokinetics of pracinostat
Format: in vivo, human
Run parameters: human, plasma, po, 100 mg, t1/2, Day 1, 100 mg oral, n=3, mean±SD
Readout: half-life (h)
// return numeric value only (unit: h, not printed)

Reported half-life for CCCCc1nc2cc(/C=C/C(=O)NO)ccc2n1CCN(CC)CC [Pracinostat] : what is it?
8.4

----------
Experiment summary: Plasma pharmacokinetics of pracinostat
Type: in vivo, human
Run parameters: human, plasma, oral, Tmax, range over dose levels, 40-120 mg, Days 1 and 15
Readout: Tmax

Need Tmax of CCCCc1nc2cc(/C=C/C(=O)NO)ccc2n1CCN(CC)CC , thanks.
0.8 to 1.3 h

The measured values listed here are drawn from paper PMC5901648.
